B1: library; numbered along this chain (parent)
chain: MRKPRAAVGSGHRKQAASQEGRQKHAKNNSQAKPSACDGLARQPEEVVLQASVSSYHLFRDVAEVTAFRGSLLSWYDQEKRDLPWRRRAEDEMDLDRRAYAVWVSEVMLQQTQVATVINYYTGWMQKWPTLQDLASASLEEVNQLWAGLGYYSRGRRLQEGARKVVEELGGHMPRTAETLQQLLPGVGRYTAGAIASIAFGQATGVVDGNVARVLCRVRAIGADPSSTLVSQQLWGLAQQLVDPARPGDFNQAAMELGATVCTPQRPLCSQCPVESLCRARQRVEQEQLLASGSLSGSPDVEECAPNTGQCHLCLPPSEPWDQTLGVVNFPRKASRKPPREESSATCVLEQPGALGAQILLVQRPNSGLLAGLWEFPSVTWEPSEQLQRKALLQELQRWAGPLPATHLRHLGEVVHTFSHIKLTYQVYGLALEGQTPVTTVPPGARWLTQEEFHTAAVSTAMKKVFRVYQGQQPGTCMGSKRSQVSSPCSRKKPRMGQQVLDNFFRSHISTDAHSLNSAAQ

- Variants of: B1
- TEST: 8OG:A repair function score (normalized; synonymous = 0, nonsense = -1) (normalized log-likelihood score); higher = more repair activity (WT-like);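 also: cells sorted at 72 h after reporter transfection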
- CONDITION DESCRIPTION: with 8OG:A DNA repair reporter (GFP) in HEK-293 MUTYH KO cells
The following variants are listed with their measured 8OG:A repair function score values.
PARAMETER: 8OG:A repair function score

- VARIANT ID: "A99D"
  RECORDED VALUE: -3
- VARIANT ID: "S344R"
  RECORDED VALUE: -0.0609
- VARIANT ID: "G429R"
  RECORDED VALUE: -0.355
- VARIANT ID: "F330I"
  RECORDED VALUE: -0.18
- VARIANT ID: "N503P"
  RECORDED VALUE: -0.000934
- VARIANT ID: "E140C"
  RECORDED VALUE: -0.0271
- VARIANT ID: "G171Q"
  RECORDED VALUE: -0.338
- VARIANT ID: "P338G"
  RECORDED VALUE: -0.0299
- VARIANT ID: "Y151K"
  RECORDED VALUE: -0.808
- VARIANT ID: "R213F"
  RECORDED VALUE: -1.01
- VARIANT ID: "R154W"
  RECORDED VALUE: -1.03
- VARIANT ID: "E413L"
  RECORDED VALUE: -0.056
- VARIANT ID: "K492S"
  RECORDED VALUE: -0.0044
- VARIANT ID: "S276P"
  RECORDED VALUE: -0.0133
- VARIANT ID: "L325Q"
  RECORDED VALUE: -0.141
- VARIANT ID: "V415R"
  RECORDED VALUE: 0.157
- VARIANT ID: "P299I"
  RECORDED VALUE: -0.00528
- VARIANT ID: "A405V"
  RECORDED VALUE: -0.00982
- VARIANT ID: "C269L"
  RECORDED VALUE: -1.21
- VARIANT ID: "R156W"
  RECORDED VALUE: -0.133
- VARIANT ID: "P273C"
  RECORDED VALUE: -0.28
- VARIANT ID: "S335G"
  RECORDED VALUE: -0.02
